# Tested on: Nitrosomonas europaea
# Test details: Nitrification inhibition assay with Nitrosomonas europaea (nitrite level after 24 h)
# Format: cell-based
# Measurement context: Nitrosomonas europaea; 8-point dose response, 2 to 100 μM; read-out: IC50
pIC50: −log10 of the molar value.
Quantity measured: pIC50

Field: example entries. Status: answers known.
{"Molecule": "Cc1csc(SC2CCCCC2)n1 [Example 38]", "pIC50": "< 4.00"}
{"Molecule": "CN(Cc1c(Cl)nc2sccn12)CN1CCSC1=S [Example 1]", "pIC50": "> 5.70"}
{"Molecule": "CCN(CN1CCSC1=S)C1CC1 [Example 2]", "pIC50": "> 5.70"}
{"Molecule": "O=C(CSC1=NCCS1)N1CCCC1 [Example 10]", "pIC50": "< 4.00"}
{"Molecule": "CC1CSC(=S)N1 (stereo not shown) [Example 3]", "pIC50": "> 5.46"}

Request: What measured pIC50 goes with CCSc1nc(CC(=O)O)cs1 [Example 27] ?
Response: < 4.00

Request: Then CCC1CCCCN1C(=O)CSC1=NCCS1 (stereo not shown) [Example 9] ?
Response: < 4.00

Request: For CSc1nc(Br)cs1 [Example 32] then?
Response: > 4.00

Request: // next record S=c1[nH]cc(Cc2ccccc2)s1 [Example 28]
Response: < 4.00

Request: Can you handle S=C1NCCO1 [Example 7] next?
Response: > 5.22
